target-or-test-system: human progesterone receptor-A [PRA] isoform (Homo sapiens, UniProt P06401)
Construct: host or cells: insect SF21 cells (baculovirus)
test-name: Radioligand binding with human progesterone receptor cytosol ([3H]-progesterone competition)
conditions: PRA cytosol expressed in insect SF21 cells, [3H]Prog ~0.8 nM, 4° C. overnight; Ki by Cheng-Prusoff, KL ~4.5 nM; read-out: Ki (nM) PR
Please provide measured Ki for the entries that follow.

Q. Fill in: Ki of COCCNC(=O)OCCC1Oc2cccc(OC)c2-c2ccc3c(c21)C(C)=CC(C)(C)N3 (stereo not drawn) is ___
A. ≥ 10000 nM

Q. // query Ki value for entry COCOc1cccc(C2Oc3cccc(OC)c3-c3ccc4c(c32)C(C)=CC(C)(C)N4)c1 (stereo not drawn)
A. ≥ 10000 nM

Q. I have this compound here, COc1cccc2c1-c1ccc3c(c1C(C1CCCCC1=O)O2)C(C)=CC(C)(C)N3 (single isomer, unassigned) , and I need its recorded Ki.
A. ≥ 10000 nM

====

Task for the reader: assign each of the following molecules its reported Ki.
target-or-test-system: human glucocorticoid receptor-α [GRX] isoform (Homo sapiens, UniProt P04150)
Construct: host or cells: insect SF21 cells (baculovirus)
Sequence (P04150 whole entry, canonical isoform): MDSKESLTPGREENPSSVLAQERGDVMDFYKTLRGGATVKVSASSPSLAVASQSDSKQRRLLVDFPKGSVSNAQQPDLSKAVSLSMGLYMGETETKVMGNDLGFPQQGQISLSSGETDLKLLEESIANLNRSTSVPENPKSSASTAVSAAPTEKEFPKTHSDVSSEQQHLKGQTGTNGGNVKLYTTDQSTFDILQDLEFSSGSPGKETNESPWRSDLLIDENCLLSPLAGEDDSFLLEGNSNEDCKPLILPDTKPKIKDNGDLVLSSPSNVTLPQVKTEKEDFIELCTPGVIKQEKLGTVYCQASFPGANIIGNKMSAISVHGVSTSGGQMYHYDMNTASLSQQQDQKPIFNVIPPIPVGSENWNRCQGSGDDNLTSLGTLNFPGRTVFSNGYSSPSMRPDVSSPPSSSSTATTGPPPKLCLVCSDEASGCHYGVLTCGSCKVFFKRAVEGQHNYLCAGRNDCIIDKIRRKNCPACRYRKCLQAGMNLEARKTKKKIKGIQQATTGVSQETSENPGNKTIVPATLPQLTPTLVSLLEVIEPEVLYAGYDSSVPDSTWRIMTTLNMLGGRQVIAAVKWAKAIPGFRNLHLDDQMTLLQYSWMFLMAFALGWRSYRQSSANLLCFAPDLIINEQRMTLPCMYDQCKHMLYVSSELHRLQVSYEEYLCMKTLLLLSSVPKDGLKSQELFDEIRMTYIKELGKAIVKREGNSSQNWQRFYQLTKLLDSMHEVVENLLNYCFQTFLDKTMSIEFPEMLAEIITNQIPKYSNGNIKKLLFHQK
test-name: Radioligand binding with human glucocorticoid receptor cytosol ([3H]-dexamethasone competition)
conditions: GRX cytosol expressed in insect SF21 cells, [3H]-Dex ~0.9 nM, 4° C. overnight; Ki by Cheng-Prusoff, KL ~[…]; read-out: Ki (nM) GR
State the answer as a number, implicitly in nM.

Q. // lookup Ki for COc1c(O)ccc2c1-c1ccc3c(c1C(=Cc1ccccc1)O2)C(C)=CC(C)(C)N3 [Example 430]
A. 4.8

Q. Which Ki value belongs to C=CCc1cc(C)cc(C2Oc3cccc(OC)c3-c3ccc4c(c32)C(C)=CC(C)(C)N4)c1 (centres unmarked) ?
A. 6.1

Q. Find the recorded Ki belonging to COc1cccc2c1-c1ccc3c(c1C(c1cc(F)c(F)c(F)c1)O2)C(C)=CC(C)(C)N3 (centres unmarked) and report it.
A. 5.3

Q. What value of measured Ki is listed for COC(=O)CC1Oc2ccc(O)c(OC)c2-c2ccc3c(c21)C(C)=CC(C)(C)N3 (centres unmarked) ?
A. 0.84

Q. What value of Ki has been reported for the following molecule? C=CCC1Oc2ccc(OCSC)c(OC)c2-c2ccc3c(c21)C(C)=CC(C)(C)N3 (centres unmarked)
A. 18.8

====

target-or-test-system: human glucocorticoid receptor-α [GRX] isoform (Homo sapiens, UniProt P04150)
Construct: host or cells: insect SF21 cells (baculovirus)
test-name: Radioligand binding with human glucocorticoid receptor cytosol ([3H]-dexamethasone competition)
conditions: GRX cytosol expressed in insect SF21 cells, [3H]-Dex ~0.9 nM, 4° C. overnight; Ki by Cheng-Prusoff, KL ~[…]; read-out: Ki (nM) GR
readout-label: Ki (nM)
Write the answer as a number in nM, unit excluded.

Q. Which Ki value belongs to COc1cccc2c1-c1ccc3c(c1C(CCCNC(=O)NN)O2)C(C)=CC(C)(C)N3 (stereo not drawn) ?
A. 468

Q. Give the measured Ki of COc1cccc2c1-c1ccc3c(c1[C@H]([C@H]1C=C(CO)CCC1)O2)C(C)=CC(C)(C)N3 (relative stereo) [Example 148] .
A. 2.8

Q. Can you look up the measured Ki of COc1c(OC(=O)CCC(=O)N(C)C)ccc2c1-c1ccc3c(c1C(C(C)C)O2)C(C)=CC(C)(C)N3 (stereo not drawn) for me?
A. 0.67

Q. What value of Ki has been reported for the following molecule? C=CCC1Oc2ccc(O)c(OC)c2-c2ccc3c(c21)C(C)=CC(C)(C)N3 (stereo not drawn)
A. 0.94

Q. What does the data say about its Ki? Entry: COc1cccc2c1-c1ccc3c(c1C(c1cc(C)cc(Br)c1)O2)C(C)=CC(C)(C)N3 (stereo not drawn)
A. 4.4

Q. Suppose we examine the molecule CCCC1Oc2cccc(OC)c2-c2ccc3c(c21)C(C)=CC(C)(C)N3 (stereo not drawn) ; what Ki value has been reported?
A. 6.6

Q. Please give the measured Ki for this molecule: COc1cccc2c1-c1ccc3c(c1C(c1ccc(C)cc1)O2)C(C)=CC(C)(C)N3 (stereo not drawn)
A. 4.9

Q. Which Ki value is on record for CC1=CC(C)(C)Nc2ccc3c(c21)C(c1cc(F)c(F)c(F)c1)Oc1ccc(O)c(Cl)c1-3 (stereo not drawn) ?
A. 120

Q. Any idea what its Ki is? The molecule is C=CCC1Oc2cccc(O)c2-c2ccc3c(c21)C(C)=CC(C)(C)N3 (stereo not drawn)
A. 22.9

Q. What value of Ki has been reported for the following molecule? C=CCC1Oc2cccc(-c3ccco3)c2-c2ccc3c(c21)C(C)=CC(C)(C)N3 (stereo not drawn)
A. 228

Q. Find the recorded Ki belonging to C=CCC1Oc2ccc(CO)c(Cl)c2-c2ccc3c(c21)C(C)=CC(C)(C)N3 (stereo not drawn) and report it.
A. 1.1

Q. Which Ki value belongs to C=CCC1Oc2ccc(OCC)c(OC)c2-c2ccc3c(c21)C(C)=CC(C)(C)N3 (stereo not drawn) ?
A. 487

Q. Requested field: Ki. Item: COc1cccc2c1-c1ccc3c(c1C(c1ccc(Cl)cc1)O2)C(C)=CC(C)(C)N3 (stereo not drawn)
A. 4.7

Q. Query (molecule): COc1cccc2c1-c1ccc3c(c1C(C#Cc1ccccc1)O2)C(C)=CC(C)(C)N3 (stereo not drawn) ; field requested: Ki
A. 107

Q. Record request: Ki value, item COc1c(O)ccc2c1-c1ccc3c(c1C(c1ccccc1)O2)C(C)=CC(C)(C)N3 (stereo not drawn)
A. 1

====

target-or-test-system: human progesterone receptor-A [PRA] isoform (Homo sapiens)
Construct: host or cells: insect SF21 cells (baculovirus)
Sequence (P06401 1-769 isoform P06401-2): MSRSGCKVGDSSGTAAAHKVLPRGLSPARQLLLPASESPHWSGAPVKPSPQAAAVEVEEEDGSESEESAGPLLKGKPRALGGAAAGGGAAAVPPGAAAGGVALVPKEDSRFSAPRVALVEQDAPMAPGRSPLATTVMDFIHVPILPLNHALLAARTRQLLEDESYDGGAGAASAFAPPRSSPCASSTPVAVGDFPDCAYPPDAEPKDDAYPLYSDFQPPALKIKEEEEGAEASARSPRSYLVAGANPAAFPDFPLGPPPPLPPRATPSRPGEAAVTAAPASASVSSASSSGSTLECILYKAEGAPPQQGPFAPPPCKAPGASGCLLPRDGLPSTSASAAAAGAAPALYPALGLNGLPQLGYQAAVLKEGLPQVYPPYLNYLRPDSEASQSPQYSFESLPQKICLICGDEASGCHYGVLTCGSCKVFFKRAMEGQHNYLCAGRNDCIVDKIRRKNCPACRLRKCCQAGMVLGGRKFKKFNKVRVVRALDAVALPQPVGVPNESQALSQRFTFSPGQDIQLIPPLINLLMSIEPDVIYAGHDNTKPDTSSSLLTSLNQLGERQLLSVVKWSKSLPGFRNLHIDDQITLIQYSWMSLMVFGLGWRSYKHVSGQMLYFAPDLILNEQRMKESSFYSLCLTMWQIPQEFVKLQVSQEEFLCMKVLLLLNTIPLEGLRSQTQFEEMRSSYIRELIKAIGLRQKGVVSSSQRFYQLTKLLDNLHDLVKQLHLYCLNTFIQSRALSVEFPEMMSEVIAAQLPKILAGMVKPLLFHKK
test-name: Radioligand binding with human progesterone receptor cytosol ([3H]-progesterone competition)
conditions: PRA cytosol expressed in insect SF21 cells, [3H]Prog ~0.8 nM, 4° C. overnight; Ki by Cheng-Prusoff, KL ~4.5 nM; read-out: Ki (nM) PR
Answer each item with its documented Ki.

Q. Name the recorded Ki for COc1cccc2c1-c1ccc3c(c1C(CCOC(=O)NCc1ccccc1)O2)C(C)=CC(C)(C)N3 (stereo not drawn) .
A. ≥ 10000 nM

Q. Would you kindly share the measured Ki for COc1cccc2c1-c1ccc3c(c1C(c1cccc(-c4ccco4)c1)O2)C(C)=CC(C)(C)N3 (stereo not drawn) ?
A. ≥ 10000 nM

Q. Give its Ki value. Item: COc1cccc2c1-c1ccc3c(c1C(c1ccccc1)O2)C(C)=[N+]([O-])C(C)(C)N3 (stereo not drawn)
A. ≥ 10000 nM

====

target-or-test-system: human glucocorticoid receptor-α [GRX] isoform (Homo sapiens, UniProt P04150)
Construct: host or cells: insect SF21 cells (baculovirus)
test-name: Radioligand binding with human glucocorticoid receptor cytosol ([3H]-dexamethasone competition)
conditions: GRX cytosol expressed in insect SF21 cells, [3H]-Dex ~0.9 nM, 4° C. overnight; Ki by Cheng-Prusoff, KL ~[…]; read-out: Ki (nM) GR
readout-label: Ki (nM)
Respond numerically; units are nM and should not be typed.

Q. // lookup Ki for COc1cccc2c1-c1ccc3c(c1C(c1ccc(OC(C)=O)cc1)O2)C(C)=CC(C)(C)N3 (stereo not drawn)
A. 43

Q. Which Ki value belongs to `CC1=C[C@@H]([C@H]2Oc3ccc(O)c(Cl)c3-c3ccc4c(c32)C(C)=CC(C)(C)N4)CCC1` ?
A. 56.9

Q. Recorded Ki for C#CCOc1ccc2c(c1OC)-c1ccc3c(c1C(CC=C)O2)C(C)=CC(C)(C)N3 (stereo not drawn) , please?
A. 13.8

Q. Reported Ki, compound COc1c(O)ccc2c1-c1ccc3c(c1C(c1ccsc1)O2)C(C)=CC(C)(C)N3 (stereo not drawn) : ____
A. 1.6

Q. Ki lookup needed for COc1cccc2c1-c1ccc3c(c1C(C1C=CC(=O)O1)O2)C(C)=CC(C)(C)N3 (stereo not drawn) , thanks.
A. 21.7

Q. Reported Ki, compound COc1cccc2c1-c1ccc3c(c1C(N(C)c1ccccc1)O2)C(C)=CC(C)(C)N3 (stereo not drawn) : ____
A. 260

Q. Query (compound): COc1cccc2c1-c1ccc3c(c1C(c1ccc(N4CCOCC4)cc1)O2)C(C)=CC(C)(C)N3 (stereo not drawn) ; field requested: Ki
A. 99

Q. Please report the recorded Ki for COC(=O)/C=C/CC1Oc2cccc(OC)c2-c2ccc3c(c21)C(C)=CC(C)(C)N3 (stereo not drawn) .
A. 7.7

Q. // returns reported Ki for input CCOC(=N)C1Oc2cccc(OC)c2-c2ccc3c(c21)C(C)=CC(C)(C)N3 (stereo not drawn)
A. 62
